- TARGET: human SST-R2 (human, UniProt P30874)
- Sequence (P30874 whole entry): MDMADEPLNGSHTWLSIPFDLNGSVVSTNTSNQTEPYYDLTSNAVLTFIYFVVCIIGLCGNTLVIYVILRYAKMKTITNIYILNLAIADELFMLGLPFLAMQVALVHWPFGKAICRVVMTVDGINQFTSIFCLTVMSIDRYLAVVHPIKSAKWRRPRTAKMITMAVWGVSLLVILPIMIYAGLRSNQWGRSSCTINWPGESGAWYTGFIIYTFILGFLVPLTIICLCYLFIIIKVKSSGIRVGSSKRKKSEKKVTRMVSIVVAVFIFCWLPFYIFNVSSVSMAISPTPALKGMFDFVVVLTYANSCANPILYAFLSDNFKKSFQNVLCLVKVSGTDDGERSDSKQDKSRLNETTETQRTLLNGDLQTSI
- MEASUREMENT_NOTES: competition, SRIF-14 displacement
Exercise: for every item that follows, state its recorded IC50.
Give bare numbers, in µM.

INSERT INTO results (binder, readout_units, measured_number) VALUES
  ('XFWWKTFG (not fully specified; PTR 3173-NH2 core; X = GABA; fluorescein amide, aminopentanoic linker; backbone cyclic; D-Trp; C-terminal amide) [YS-1-29]', 'µM', 0.032),
  ('FGFWWKTFG (not fully specified; PTR 3219 core; fluorescein thiourea, Gly linker; cyclic GlyS2* to GlyS2*; D-Phe1, D-Trp; C-terminal amide) [YS-1-58]', 'µM', 0.018),
  ('GFWWKTFG (not fully specified; PTR 3213 core; fluorescein amide, betaAla linker; cyclic GlyS2* to GlyS2*; D-Trp; C-terminal amide) [YS-1-44]', 'µM', 0.019),
  ('GFWWKTFG (not fully specified; PTR 3213 core; fluorescein amide, aminopentanoic linker; cyclic GlyS2* to GlyS2*; D-Trp; C-terminal amide) [YS-1-52]', 'µM', 0.009),
  ('GFWWKTFG (not fully specified; PTR 3213 core; fluorescein thiourea, no linker; cyclic GlyS2* to GlyS2*; D-Trp; C-terminal amide) [YS-1-54]', 'µM', 0.048);

Q. Please supply the value of reported IC50 for the item FGFWWKTFG (not fully specified; PTR 3219 core; fluorescein amide, aminohexanoic linker; cyclic GlyS2* to GlyS2*; D-Phe1, D-Trp; C-terminal amide) [YS-1-76]
A. 0.013
